- SUBJECT_OF_TEST: Estrogen receptor beta (Homo sapiens)
- ASSAY_METHOD_TEXT: qHTS assay to identify small molecule antagonists of the estrogen receptor beta (ER-beta) signaling pathway (AID 1259378)
- RUN_CONDITIONS: ER-beta-UAS-bla HEK293T, beta-lactamase FRET ratio, 16 h; series mostly up to 92.4 µM
Results filed as inconclusive are left out. Calls of active or inactive are those of the source. The call rests on the fitted dose curve; in most records, active means well fitted inhibition curve with a large enough effect in the signal ratio in the repeat runs (not every such curve was filed as active); inconclusive means weak or mixed curves, or effect the other way; inactive means no such curve, though single readings can be large or run the other way; the % refers to the signal ratio.
Classes used: T = active, F = inactive

>>> df
                                    compound  assigned_class
 0                             NC(=O)C(Cl)Cl               F
 1               CCCCCCCCCCCCCCn1cc[n+](C)c1               F
 2                  CCC1(CC)C(=O)N=C(O)NC1=O               F
 3                           S=C=NCCc1ccccc1               T
 4       CCC(C)Br (configuration not stated)               F
 5                                 CCCCCON=O               F
 6  COc1ccc2c3c1O[C@H]1[C@H](O)CC[C@H]4[C@@H](C2)N(C)CC[C@@]341               F
 7                                        CN               F
 8                        CCCCCCCc1ccc(O)cc1               T
 9                             S=C=Nc1ccccc1               F
10                        Cc1ccc(C)c2ccccc12               F
11                            C#CC1(O)CCCCC1               F

These measurements were taken from PubChem BioAssay (Tox21).
